Recorded values, source patent US20240270821A1.

Exercise: for every item that follows, state its recorded EC50.
target.under.test: human GcgR (Homo sapiens, UniProt P47871)
Sequence (P47871 26-477): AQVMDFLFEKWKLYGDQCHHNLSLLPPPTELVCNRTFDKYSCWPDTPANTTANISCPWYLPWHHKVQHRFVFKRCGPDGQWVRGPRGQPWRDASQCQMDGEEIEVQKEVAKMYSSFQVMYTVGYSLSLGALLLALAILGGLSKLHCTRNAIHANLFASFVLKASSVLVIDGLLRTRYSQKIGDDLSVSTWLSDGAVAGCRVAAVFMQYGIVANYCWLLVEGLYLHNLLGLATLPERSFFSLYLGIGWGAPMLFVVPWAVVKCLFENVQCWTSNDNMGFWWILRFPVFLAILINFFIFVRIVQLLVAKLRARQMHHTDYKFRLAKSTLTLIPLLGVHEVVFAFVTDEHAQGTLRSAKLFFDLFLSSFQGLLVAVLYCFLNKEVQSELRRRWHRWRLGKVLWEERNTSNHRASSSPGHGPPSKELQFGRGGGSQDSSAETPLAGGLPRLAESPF
assay.comment: Functional cAMP activity in the presence of 1% HSA
Format: cell-based
test.parameters: read-out: cAMP Rel EC50, hGcgR
Starred links: 1 amine or outer side, 2 acyl side, 3 side chain; linkers in the order of their positions; H or OH if unused. Non-standard residues stand in square brackets, D forms with d. Groups on a side chain read outwards from the residue. No end group written: not given here. *: point of attachment. C20 diacid = O=C(O)CCCCCCCCCCCCCCCCCCC(=O)*; C18 diacid = O=C(O)CCCCCCCCCCCCCCCCC(=O)*; αMePhe(2-F) = C[C@](N)(Cc1ccccc1F)C(=O)O; γGlu = O=C(O)[C@H](CCC(=O)[*:2])N[*:1]; αMe4Pal = C[C@](N)(Cc1ccncc1)C(=O)O; αMeY = C[C@](N)(Cc1ccc(O)cc1)C(=O)O; 4Pal = N[C@@H](Cc1ccncc1)C(=O)O; αMeL = CC(C)C[C@](C)(N)C(=O)O; αMeS = C[C@](N)(CO)C(=O)O; Orn = NCCC[C@H](N)C(=O)O; AEEA = NCCOCCOCC(=O)O; Aib = CC(C)(N)C(=O)O

# count of solved cases: 4
substance	EC50
H-Y[Aib]QGTFTSDFS[Orn][αMeL]LDKK([AEEA-AEEA-γGlu-C18 diacid])AQ[Aib]AFIEYLLE[Aib]GPSSGEPPPEGS-NH2 [Example 195]	605 nM
Y[Aib]QGTFTSDFS[Orn][αMeL]LDKK([γGlu-γGlu-C18 diacid])AQ[Aib]AFIEYLLEGGPSSGAPPPSGT-NH2 [Example 260]	162 nM
H-Y[Aib]QGT[αMePhe(2-F)]TSD[4Pal]SILLDKK([γGlu-γGlu-C18 diacid])AQ[Aib]AFIE[αMeY]LEEGGPSSGAPPPSGGGE-NH2 [Example 668]	203 nM
H-Y[Aib]QGTFTSDFSK[αMeL]LDKK([AEEA-γGlu-C20 diacid])AQ[Aib]AFIEYLLEGGPSSGEPPPGEG[AEEA]-NH2 [Example 54]	1940 nM

Dear colleague, could you send me EC50 for each of the items below? Thanks.
1. H-Y[Aib]QGT[αMePhe(2-F)]TSD[4Pal][αMeS]I[αMeL]LD[Orn]K([Glu-γGlu-C18 diacid])AQ[Aib][Orn]FI[dE][αMeY]LSEGGPSSGEPPPSGTE-NH2 [Example 563]
2. H-Y[Aib]QGTFTSDFSK[αMeL]LDKK([AEEA-γGlu-C20 diacid])AQ[Aib]AFIEYLLAGGPSSGEPPPSGS-NH2 [Example 8]
3. H-Y[Aib]QGTFTSD[4Pal]SK[αMeL]LDKK([AEEA-γGlu-C18 diacid])AQ[Aib]AFIEYLIE[dA]GESSGEPPPSGS-NH2 [Example 284]

[out]
1010 nM
1560 nM
1530 nM

Would you mind listing EC50 for each of the following substances?
1. H-Y[Aib]QGTFTSDFSK[αMeL]LDKK([AEEA-γGlu-C20 diacid])AQ[Aib]AFIEYLLAGGPSSGEPPPGGS-NH2 [Example 9]
2. Y[Aib]QGT[αMePhe(2-F)]TSD[4Pal][αMeS]I[αMeL]LD[Orn]K([AEEA-γGlu-C18 diacid])AQ[αMe4Pal]EFI[dE][αMeY]LIEGGPSSGEPPPSGE-NH2 [Example 1141]
3. H-Y[Aib]QGTFTSD[4Pal]S[Orn][αMeL]LDKK([AEEA-γGlu-C18 diacid])AQ[Aib]AFIEWLLEGGPSSGEPPPSGE-NH2 [Example 115]
4. H-Y[Aib]QGT[αMePhe(2-F)]TSD[4Pal]SILLD[Orn]K([γGlu-γGlu-C18 diacid])AQ[Aib]AFIEYLQEGGPSSGEPPPSGTEE-NH2 [Example 583]
5. H-Y[Aib]QGTFTSD[4Pal]SQ[αMeL]LDKK([AEEA-γGlu-C18 diacid])AQ[Aib]AFIE[αMeY]LIEGGPSSGAPPPEGS-NH2 [Example 853]
6. Y[Aib]QGT[αMePhe(2-F)]TSD[4Pal][αMeS]I[αMeL]LD[Orn]K([γGlu-γGlu-C18 diacid])AQ[Aib][Orn]FI[dE]YLIEGGPSSGEPPPSGTE-NH2 [Example 521]
7. H-Y[Aib]QGT[αMePhe(2-F)]TSD[4Pal]SILLDKK([γGlu-γGlu-C18 diacid])AQ[Aib]AFIEYLQEGGPSSGAPPPSGTE-NH2 [Example 553]

[out]
1. 1430 nM
2. 169 nM
3. 2210 nM
4. 1250 nM
5. 4500 nM
6. 275 nM
7. 523 nM
